Target: Human DPP-IV (Homo sapiens)
Sequence (P27487 whole entry): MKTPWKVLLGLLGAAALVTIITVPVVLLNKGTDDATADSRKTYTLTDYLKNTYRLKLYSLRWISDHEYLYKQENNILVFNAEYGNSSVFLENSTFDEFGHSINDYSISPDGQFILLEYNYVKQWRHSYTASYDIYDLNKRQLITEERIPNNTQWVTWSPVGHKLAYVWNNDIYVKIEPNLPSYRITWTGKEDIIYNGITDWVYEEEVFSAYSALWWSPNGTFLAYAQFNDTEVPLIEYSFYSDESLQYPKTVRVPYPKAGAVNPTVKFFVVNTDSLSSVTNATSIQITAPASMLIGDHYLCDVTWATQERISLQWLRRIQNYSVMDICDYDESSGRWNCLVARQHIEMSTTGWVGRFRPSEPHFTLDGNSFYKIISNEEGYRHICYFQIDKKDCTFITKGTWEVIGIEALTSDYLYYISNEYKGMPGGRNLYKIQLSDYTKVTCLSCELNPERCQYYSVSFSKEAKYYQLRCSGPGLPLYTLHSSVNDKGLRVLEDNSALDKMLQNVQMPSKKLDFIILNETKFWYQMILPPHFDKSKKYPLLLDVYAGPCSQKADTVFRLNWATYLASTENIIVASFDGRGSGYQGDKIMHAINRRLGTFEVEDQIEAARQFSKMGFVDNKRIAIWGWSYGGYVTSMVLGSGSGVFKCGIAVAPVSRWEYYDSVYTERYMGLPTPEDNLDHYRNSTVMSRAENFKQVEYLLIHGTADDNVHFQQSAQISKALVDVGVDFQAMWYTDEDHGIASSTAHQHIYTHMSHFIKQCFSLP
PROPERTY MEASURED: IC50

Please provide the recorded IC50 for COc1ccccc1-c1ccc2[nH]c(=O)c(=O)[nH]c2c1CN , tested on Human DPP-IV (Homo sapiens).
< 50 µM
